Reported selectivity ratio values follow for various compounds
Target: cytochrome P450 3A4 (Homo sapiens)
Sequence (P08684 whole entry): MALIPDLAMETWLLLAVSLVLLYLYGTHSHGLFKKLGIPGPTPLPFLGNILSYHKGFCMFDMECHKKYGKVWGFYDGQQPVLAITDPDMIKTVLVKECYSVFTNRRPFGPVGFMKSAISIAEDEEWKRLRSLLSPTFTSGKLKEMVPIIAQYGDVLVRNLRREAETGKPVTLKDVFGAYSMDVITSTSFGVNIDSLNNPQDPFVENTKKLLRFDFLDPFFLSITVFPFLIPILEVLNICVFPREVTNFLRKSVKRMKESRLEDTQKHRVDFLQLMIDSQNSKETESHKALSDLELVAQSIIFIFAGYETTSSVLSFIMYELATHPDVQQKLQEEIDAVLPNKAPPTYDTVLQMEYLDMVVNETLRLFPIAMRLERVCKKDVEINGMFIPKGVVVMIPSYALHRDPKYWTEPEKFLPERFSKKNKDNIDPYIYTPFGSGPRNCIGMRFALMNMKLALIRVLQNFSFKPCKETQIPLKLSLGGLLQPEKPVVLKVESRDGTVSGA
Experiment: Inhibition of cytochrome P450 3A4 (testosterone 6β-hydroxylase activity)
readout_kind: selectivity ratio

- CC(O)C(C)n1ncn(-c2ccc(N3CCN(c4ccc(OC[C@@H]5CO[C@@](Cn6cncn6)(c6ccc(Cl)cc6Cl)O5)cc4)CC3)cc2)c1=O (some centres unmarked) [11 + 12]: 6.5
- C[C@@H](O)[C@H](C)n1ncn(-c2ccc(N3CCN(c4ccc(OC[C@H]5CO[C@](Cn6cncn6)(c6ccc(Cl)cc6Cl)O5)cc4)CC3)cc2)c1=O [Compound 1]: 56
- C[C@H](O)[C@@H](C)n1ncn(-c2ccc(N3CCN(c4ccc(OC[C@@H]5CO[C@@](Cn6cncn6)(c6ccc(Cl)cc6Cl)O5)cc4)CC3)cc2)c1=O [Compound 10]: 19
- C[C@@H](O)[C@H](C)n1ncn(-c2ccc(N3CCN(c4ccc(OC[C@@H]5CO[C@@](Cn6cncn6)(c6ccc(Cl)cc6Cl)O5)cc4)CC3)cc2)c1=O [Compound 9]: 7.4
- CC(O)C(C)n1ncn(-c2ccc(N3CCN(c4ccc(OC[C@H]5CO[C@](Cn6cncn6)(c6ccc(Cl)cc6Cl)O5)cc4)CC3)cc2)c1=O (some centres unmarked) [3 + 4]: 24

====

Recorded solubility values for a group of molecules are listed next.
Test: Water solubility of hydroxyitraconazole phosphate isomers (NMG salts)
Assay type: physicochemical
Conditions: water; Table 8
readout_kind: solubility (µg/mL)

- C[C@@H](O)[C@H](C)n1ncn(-c2ccc(N3CCN(c4ccc(OC[C@H]5CO[C@](Cn6cncn6)(c6ccc(Cl)cc6Cl)O5)cc4)CC3)cc2)c1=O: 0.051
- CC(O)C(C)n1ncn(-c2ccc(N3CCN(c4ccc(OC[C@H]5CO[C@](Cn6cncn6)(c6ccc(Cl)cc6Cl)O5)cc4)CC3)cc2)c1=O (some centres unmarked): 2

====

Experiment: Water solubility of hydroxyitraconazole isomers and itraconazole
Assay type: physicochemical
Details: water; LOD: 5000 μV*sec; order-of-magnitude accuracy below LOD; 3+4 and 11+12 ±10%
readout_kind: solubility (µg/mL)

• CC(O)C(C)n1ncn(-c2ccc(N3CCN(c4ccc(OC[C@H]5CO[C@](Cn6cncn6)(c6ccc(Cl)cc6Cl)O5)cc4)CC3)cc2)c1=O (stereo partly shown) = 1.97
• C[C@@H](O)[C@H](C)n1ncn(-c2ccc(N3CCN(c4ccc(OC[C@H]5CO[C@](Cn6cncn6)(c6ccc(Cl)cc6Cl)O5)cc4)CC3)cc2)c1=O = 0.051
• CC(O)C(C)n1ncn(-c2ccc(N3CCN(c4ccc(OC[C@@H]5CO[C@@](Cn6cncn6)(c6ccc(Cl)cc6Cl)O5)cc4)CC3)cc2)c1=O (stereo partly shown) = 0.59
• C[C@@H](O)[C@H](C)n1ncn(-c2ccc(N3CCN(c4ccc(OC[C@@H]5CO[C@@](Cn6cncn6)(c6ccc(Cl)cc6Cl)O5)cc4)CC3)cc2)c1=O = 0.045

====

Tested on: Sacchromyces cerevisae
Experiment: Kirby-Bauer Testing, Saccharomyces cerevisiae
Assay type: cell-based
Conditions: Saccharomyces cerevisiae, 10 μl of 10 mg/mL per disk, 30° C., 16 hours
readout_kind: zone of inhibition at 10000 µg/mL (mm)

* CC(O)C(C)n1ncn(-c2ccc(N3CCN(c4ccc(OC[C@H]5CO[C@](Cn6cncn6)(c6ccc(Cl)cc6Cl)O5)cc4)CC3)cc2)c1=O (stereo partly drawn) | 23
* CCC(C)n1ncn(-c2ccc(N3CCN(c4ccc(OC[C@H]5CO[C@](Cn6cncn6)(c6ccc(Cl)cc6Cl)O5)cc4)CC3)cc2)c1=O (relative stereo) | 15
* C[C@H](O)[C@@H](C)n1ncn(-c2ccc(N3CCN(c4ccc(OC[C@@H]5CO[C@@](Cn6cncn6)(c6ccc(Cl)cc6Cl)O5)cc4)CC3)cc2)c1=O | 22
* CC(O)C(C)n1ncn(-c2ccc(N3CCN(c4ccc(OC[C@@H]5CO[C@@](Cn6cncn6)(c6ccc(Cl)cc6Cl)O5)cc4)CC3)cc2)c1=O (stereo partly drawn) | 25
* C[C@@H](O)[C@H](C)n1ncn(-c2ccc(N3CCN(c4ccc(OC[C@@H]5CO[C@@](Cn6cncn6)(c6ccc(Cl)cc6Cl)O5)cc4)CC3)cc2)c1=O | 20
* C[C@@H](O)[C@H](C)n1ncn(-c2ccc(N3CCN(c4ccc(OC[C@H]5CO[C@](Cn6cncn6)(c6ccc(Cl)cc6Cl)O5)cc4)CC3)cc2)c1=O | 22
